These entries and their values trace back to patent US12441765B2.

assay: Serum protease stability in 10% fetal calf serum (RP-HPLC); format: in vitro ADME; details: calf (bovine), 10% fetal calf serum; 11 h; 10% FCS, pH 7.3; read-out: % residual peptide ± SD
READOUT: remaining at 11 h, 10 μmol/L (%)
Lab book: enter the figure in %, no units written.

# compound N[C@H](CCC(=O)O)C(=O)N[C@@H](CSCc1ccccc1)C(=O)N[C@@H](CC1CCCCC1)C(=O)NCCCC[C@H](NC(=O)[C@H](CC1CCCCC1)NC(=O)[C@H](CSCc1ccccc1)NC(=O)[C@H](N)CCC(=O)O)C(=O)NCCCC[C@H](NC(=O)[C@H](CCCCNC(=O)[C@H](CC1CCCCC1)NC(=O)[C@H](CSCc1ccccc1)NC(=O)[C@H](N)CCC(=O)O)NC(=O)[C@H](CC1CCCCC1)NC(=O)[C@H](CSCc1ccccc1)NC(=O)[C@H](N)CCC(=O)O)C(=O)N[C@H](CS)C(=O)O [iVR1-Cys] ; its remaining at 11 h, 10 μmol/L = 94

---

test: Serum protease stability in 10% fetal calf serum (RP-HPLC); assay type: in vitro ADME; conditions: calf (bovine), 10% fetal calf serum; 3 h; 10% FCS, pH 7.3; read-out: % residual peptide ± SD
READOUT: remaining at 3 h, 10 μmol/L (%)
Give the quantity in %, number only.

Lab book: remaining at 3 h, 10 μmol/L of N[C@H](CCC(=O)O)C(=O)N[C@@H](CSCc1ccccc1)C(=O)N[C@@H](CC1CCCCC1)C(=O)NCCCC[C@H](NC(=O)[C@H](CC1CCCCC1)NC(=O)[C@H](CSCc1ccccc1)NC(=O)[C@H](N)CCC(=O)O)C(=O)NCCCC[C@H](NC(=O)[C@H](CCCCNC(=O)[C@H](CC1CCCCC1)NC(=O)[C@H](CSCc1ccccc1)NC(=O)[C@H](N)CCC(=O)O)NC(=O)[C@H](CC1CCCCC1)NC(=O)[C@H](CSCc1ccccc1)NC(=O)[C@H](N)CCC(=O)O)C(=O)N[C@H](CS)C(=O)O [iVR1-Cys] noted as 98

---

assay: Serum protease stability in 10% fetal calf serum (RP-HPLC); format: in vitro ADME; conditions: calf (bovine), 10% fetal calf serum; 4 h; 10% FCS, pH 7.3; read-out: % residual peptide ± SD
READOUT: remaining at 4 h, 10 μmol/L
Number first, unit second.

Per the record, N[C@H](CCC(=O)O)C(=O)N[C@@H](CSCc1ccccc1)C(=O)N[C@@H](CC1CCCCC1)C(=O)NCCCC[C@H](NC(=O)[C@H](CC1CCCCC1)NC(=O)[C@H](CSCc1ccccc1)NC(=O)[C@H](N)CCC(=O)O)C(=O)NCCCC[C@H](NC(=O)[C@H](CCCCNC(=O)[C@H](CC1CCCCC1)NC(=O)[C@H](CSCc1ccccc1)NC(=O)[C@H](N)CCC(=O)O)NC(=O)[C@H](CC1CCCCC1)NC(=O)[C@H](CSCc1ccccc1)NC(=O)[C@H](N)CCC(=O)O)C(=O)N[C@H](CS)C(=O)O [iVR1-Cys] has remaining at 4 h, 10 μmol/L of 97%

---

Assay: Serum protease stability in 10% fetal calf serum (RP-HPLC)
Format: in vitro ADME
Conditions: calf (bovine), 10% fetal calf serum; 120 h; 10% FCS, pH 7.3; read-out: % residual peptide ± SD
Method: The stability of the peptide iVR1-Cys in 10% serum (fetal calf serum, FCS) in a 50 mM phosphate buffer solution, pH 7.3, at 168 h was determined as described by Ponticelli et al., relying on a method based on RP-HPLC chromatography, described therein [Ponticelli et al., J Biol Chem. 2008 Dec. 5; 283 (49): 34250-9]. The reference curve was constructed by dissolving the compound in DMSO at increasing concentrations of between 0.1 μmol/L and 1000 μmol/L in order to have complete dissolution. […]
READOUT: remaining at 120 h, 10 μmol/L (%)
Give just the number in %; leave the unit off.

Quick note, remaining at 120 h, 10 μmol/L for N[C@H](CCC(=O)O)C(=O)N[C@@H](CSCc1ccccc1)C(=O)N[C@@H](CC1CCCCC1)C(=O)NCCCC[C@H](NC(=O)[C@H](CC1CCCCC1)NC(=O)[C@H](CSCc1ccccc1)NC(=O)[C@H](N)CCC(=O)O)C(=O)NCCCC[C@H](NC(=O)[C@H](CCCCNC(=O)[C@H](CC1CCCCC1)NC(=O)[C@H](CSCc1ccccc1)NC(=O)[C@H](N)CCC(=O)O)NC(=O)[C@H](CC1CCCCC1)NC(=O)[C@H](CSCc1ccccc1)NC(=O)[C@H](N)CCC(=O)O)C(=O)N[C@H](CS)C(=O)O landed at 91

---

experiment: Serum protease stability in 10% fetal calf serum (RP-HPLC); type: in vitro ADME; settings: calf (bovine), 10% fetal calf serum; 10 h; 10% FCS, pH 7.3; read-out: % residual peptide ± SD
READOUT: remaining at 10 h, 10 μmol/L
Quick note: number first, unit second.

Data point: N[C@H](CCC(=O)O)C(=O)N[C@@H](CSCc1ccccc1)C(=O)N[C@@H](CC1CCCCC1)C(=O)NCCCC[C@H](NC(=O)[C@H](CC1CCCCC1)NC(=O)[C@H](CSCc1ccccc1)NC(=O)[C@H](N)CCC(=O)O)C(=O)NCCCC[C@H](NC(=O)[C@H](CCCCNC(=O)[C@H](CC1CCCCC1)NC(=O)[C@H](CSCc1ccccc1)NC(=O)[C@H](N)CCC(=O)O)NC(=O)[C@H](CC1CCCCC1)NC(=O)[C@H](CSCc1ccccc1)NC(=O)[C@H](N)CCC(=O)O)C(=O)N[C@H](CS)C(=O)O ; remaining at 10 h, 10 μmol/L = 94%

---

experiment: Serum protease stability in 10% fetal calf serum (RP-HPLC); type: in vitro ADME; conditions: calf (bovine), 10% fetal calf serum; 72 h; 10% FCS, pH 7.3; read-out: % residual peptide ± SD
READOUT: remaining at 72 h, 10 μmol/L (%)
Field format: number, assumed %, no unit text.

Please fill in: remaining at 72 h, 10 μmol/L reported for N[C@H](CCC(=O)O)C(=O)N[C@@H](CSCc1ccccc1)C(=O)N[C@@H](CC1CCCCC1)C(=O)NCCCC[C@H](NC(=O)[C@H](CC1CCCCC1)NC(=O)[C@H](CSCc1ccccc1)NC(=O)[C@H](N)CCC(=O)O)C(=O)NCCCC[C@H](NC(=O)[C@H](CCCCNC(=O)[C@H](CC1CCCCC1)NC(=O)[C@H](CSCc1ccccc1)NC(=O)[C@H](N)CCC(=O)O)NC(=O)[C@H](CC1CCCCC1)NC(=O)[C@H](CSCc1ccccc1)NC(=O)[C@H](N)CCC(=O)O)C(=O)N[C@H](CS)C(=O)O = 92

---

Assay: Serum protease stability in 10% fetal calf serum (RP-HPLC)
Assay type: in vitro ADME
Conditions: calf (bovine), 10% fetal calf serum; 168 h; 10% FCS, pH 7.3; read-out: % residual peptide ± SD
Description: The stability of the peptide iVR1-Cys in 10% serum (fetal calf serum, FCS) in a 50 mM phosphate buffer solution, pH 7.3, at 168 h was determined as described by Ponticelli et al., relying on a method based on RP-HPLC chromatography, described therein [Ponticelli et al., J Biol Chem. 2008 Dec. 5; 283 (49): 34250-9]. The reference curve was constructed by dissolving the compound in DMSO at increasing concentrations of between 0.1 μmol/L and 1000 μmol/L in order to have complete dissolution. […]
READOUT: remaining at 168 h, 10 μmol/L (%)
Just the number please, in %, no unit attached.

remaining at 168 h, 10 μmol/L recorded for this molecule, N[C@H](CCC(=O)O)C(=O)N[C@@H](CSCc1ccccc1)C(=O)N[C@@H](CC1CCCCC1)C(=O)NCCCC[C@H](NC(=O)[C@H](CC1CCCCC1)NC(=O)[C@H](CSCc1ccccc1)NC(=O)[C@H](N)CCC(=O)O)C(=O)NCCCC[C@H](NC(=O)[C@H](CCCCNC(=O)[C@H](CC1CCCCC1)NC(=O)[C@H](CSCc1ccccc1)NC(=O)[C@H](N)CCC(=O)O)NC(=O)[C@H](CC1CCCCC1)NC(=O)[C@H](CSCc1ccccc1)NC(=O)[C@H](N)CCC(=O)O)C(=O)N[C@H](CS)C(=O)O , is 92

---

assay: Serum protease stability in 10% fetal calf serum (RP-HPLC); format: in vitro ADME; conditions: calf (bovine), 10% fetal calf serum; 24 h; 10% FCS, pH 7.3; read-out: % residual peptide ± SD
READOUT: remaining at 24 h, 10 μmol/L (%)
Give just the numeric value; % need not be written.

// field: remaining at 24 h, 10 μmol/L; key: N[C@H](CCC(=O)O)C(=O)N[C@@H](CSCc1ccccc1)C(=O)N[C@@H](CC1CCCCC1)C(=O)NCCCC[C@H](NC(=O)[C@H](CC1CCCCC1)NC(=O)[C@H](CSCc1ccccc1)NC(=O)[C@H](N)CCC(=O)O)C(=O)NCCCC[C@H](NC(=O)[C@H](CCCCNC(=O)[C@H](CC1CCCCC1)NC(=O)[C@H](CSCc1ccccc1)NC(=O)[C@H](N)CCC(=O)O)NC(=O)[C@H](CC1CCCCC1)NC(=O)[C@H](CSCc1ccccc1)NC(=O)[C@H](N)CCC(=O)O)C(=O)N[C@H](CS)C(=O)O ; value = 93
